Where these numbers come from: ChEMBL document CHEMBL1817649

- MEASUREMENT_TARGET: Beta-secretase 1 (Homo sapiens, UniProt P56817)
- Sequence (P56817 whole entry): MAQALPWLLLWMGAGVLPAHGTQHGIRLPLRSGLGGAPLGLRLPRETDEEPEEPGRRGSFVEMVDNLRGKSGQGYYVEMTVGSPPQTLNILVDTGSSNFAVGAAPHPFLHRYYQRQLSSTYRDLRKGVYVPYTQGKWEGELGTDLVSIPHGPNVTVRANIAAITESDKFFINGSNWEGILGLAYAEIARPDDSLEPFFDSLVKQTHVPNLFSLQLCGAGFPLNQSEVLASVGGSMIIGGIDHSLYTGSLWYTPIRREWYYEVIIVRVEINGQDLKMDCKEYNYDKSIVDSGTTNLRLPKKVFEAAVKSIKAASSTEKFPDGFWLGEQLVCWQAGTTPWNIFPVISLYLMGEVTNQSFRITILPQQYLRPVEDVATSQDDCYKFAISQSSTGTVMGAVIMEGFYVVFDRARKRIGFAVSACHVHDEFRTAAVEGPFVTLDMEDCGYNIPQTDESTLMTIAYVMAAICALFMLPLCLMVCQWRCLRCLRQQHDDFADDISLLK
- EXPERIMENT_DESCRIPTION: Inhibition of human recombinant BACE1 by FRET assay
pIC50: −log10 of the molar value.
EXPERIMENTAL_READOUT: pIC50

Below: 2 molecules and their reported pIC50.
Ask | Find the recorded pIC50 belonging to CC(C)[C@H](NC(=O)[C@@H](N)CNC(=O)c1[nH]c(=O)[nH]c(=O)c1F)C(=O)N[C@@H](CC1CCCCC1)C(=O)N[C@@H](Cc1ccccc1)[C@@H](O)C(=O)NC1(c2ccccc2)CCCCC1 and report it.
Reply | 7.39

Ask | Find the recorded pIC50 belonging to CC(C)[C@H](NC(=O)[C@@H](N)CNC(=O)c1[nH]c(=O)[nH]c(=O)c1F)C(=O)N[C@@H](CC1CCCCC1)C(=O)N[C@@H](Cc1ccccc1)[C@@H](O)C(=O)NC(C)(C)c1ccccc1 and report it.
Reply | 7.50

P: CC(C)C[C@H](NC(=O)[C@@H](NC(=O)[C@@H](N)CNC(=O)c1[nH]c(=O)[nH]c(=O)c1F)C(C)C)C(=O)N[C@@H](Cc1ccccc1)[C@@H](O)C(=O)NC(C)(C)c1ccccc1
Q: CC(C)C[C@H](NC(=O)[C@@H](NC(=O)[C@@H](N)CNC(=O)c1[nH]c(=O)[nH]c(=O)c1F)C(C)C)C(=O)N[C@@H](Cc1ccccc1)[C@@H](O)C(=O)NC1(c2ccccc2)CCCC1
Ask | From the recorded data, which exceeds the other in pIC50: P or Q ? Respond with the label that goes with your answer.
Reply | Q
